biological target: VAV1 (Homo sapiens, UniProt P15498+Q96SW2); construct: A heterozygous VAV1 C-terminal HiBiT knock-in pool was generated at Monte Rosa Therapeutics from a clonal Jurkat cell; endogenous in cells; host or cells: Jurkat clone stably expressing LgBiT, homozygous GSPT1-G575N; heterozygous VAV1-HiBiT knock-in pool; test: VAV1 degradation activity, VAV1-HiBiT knock-in Jurkat luminescence assay (Example A, Table 1); type: cell-based; conditions: Jurkat, VAV1-HiBiT knock-in Jurkat cells, luminescence read at 6 and 24 hours; read-out: VAV1 Dmax %
Sequence (P15498 whole entry): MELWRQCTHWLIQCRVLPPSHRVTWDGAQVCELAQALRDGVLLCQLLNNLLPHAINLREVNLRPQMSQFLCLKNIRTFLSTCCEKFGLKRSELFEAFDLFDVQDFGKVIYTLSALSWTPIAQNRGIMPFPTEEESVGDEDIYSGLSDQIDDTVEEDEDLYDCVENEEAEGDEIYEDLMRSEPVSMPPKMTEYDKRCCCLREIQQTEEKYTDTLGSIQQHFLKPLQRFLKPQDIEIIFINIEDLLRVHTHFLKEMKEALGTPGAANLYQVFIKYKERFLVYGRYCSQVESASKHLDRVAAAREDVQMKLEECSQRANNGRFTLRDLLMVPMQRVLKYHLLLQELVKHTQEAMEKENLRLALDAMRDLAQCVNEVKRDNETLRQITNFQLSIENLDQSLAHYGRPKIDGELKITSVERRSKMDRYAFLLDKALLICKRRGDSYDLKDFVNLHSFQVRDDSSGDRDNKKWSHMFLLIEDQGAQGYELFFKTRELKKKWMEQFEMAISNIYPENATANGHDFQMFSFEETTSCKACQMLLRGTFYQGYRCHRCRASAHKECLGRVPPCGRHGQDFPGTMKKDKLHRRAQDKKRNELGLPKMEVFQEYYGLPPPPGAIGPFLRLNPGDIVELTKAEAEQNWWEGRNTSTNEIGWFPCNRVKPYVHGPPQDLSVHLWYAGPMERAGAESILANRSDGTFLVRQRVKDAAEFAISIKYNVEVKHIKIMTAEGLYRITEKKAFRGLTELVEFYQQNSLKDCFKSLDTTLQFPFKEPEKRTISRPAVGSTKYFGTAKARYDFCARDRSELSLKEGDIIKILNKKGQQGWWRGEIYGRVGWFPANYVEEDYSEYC
Sequence (Q96SW2 whole entry): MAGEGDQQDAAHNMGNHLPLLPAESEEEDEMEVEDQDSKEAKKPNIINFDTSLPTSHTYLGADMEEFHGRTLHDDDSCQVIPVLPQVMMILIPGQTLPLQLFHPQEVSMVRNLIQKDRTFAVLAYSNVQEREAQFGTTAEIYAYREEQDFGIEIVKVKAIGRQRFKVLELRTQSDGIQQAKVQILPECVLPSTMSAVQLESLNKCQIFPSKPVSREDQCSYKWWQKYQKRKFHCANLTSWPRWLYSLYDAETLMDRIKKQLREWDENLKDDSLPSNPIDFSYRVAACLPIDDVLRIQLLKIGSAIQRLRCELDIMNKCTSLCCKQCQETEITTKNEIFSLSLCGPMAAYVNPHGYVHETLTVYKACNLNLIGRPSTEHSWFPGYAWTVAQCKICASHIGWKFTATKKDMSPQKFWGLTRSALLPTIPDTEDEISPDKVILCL
Sequence (Q16531 whole entry partner): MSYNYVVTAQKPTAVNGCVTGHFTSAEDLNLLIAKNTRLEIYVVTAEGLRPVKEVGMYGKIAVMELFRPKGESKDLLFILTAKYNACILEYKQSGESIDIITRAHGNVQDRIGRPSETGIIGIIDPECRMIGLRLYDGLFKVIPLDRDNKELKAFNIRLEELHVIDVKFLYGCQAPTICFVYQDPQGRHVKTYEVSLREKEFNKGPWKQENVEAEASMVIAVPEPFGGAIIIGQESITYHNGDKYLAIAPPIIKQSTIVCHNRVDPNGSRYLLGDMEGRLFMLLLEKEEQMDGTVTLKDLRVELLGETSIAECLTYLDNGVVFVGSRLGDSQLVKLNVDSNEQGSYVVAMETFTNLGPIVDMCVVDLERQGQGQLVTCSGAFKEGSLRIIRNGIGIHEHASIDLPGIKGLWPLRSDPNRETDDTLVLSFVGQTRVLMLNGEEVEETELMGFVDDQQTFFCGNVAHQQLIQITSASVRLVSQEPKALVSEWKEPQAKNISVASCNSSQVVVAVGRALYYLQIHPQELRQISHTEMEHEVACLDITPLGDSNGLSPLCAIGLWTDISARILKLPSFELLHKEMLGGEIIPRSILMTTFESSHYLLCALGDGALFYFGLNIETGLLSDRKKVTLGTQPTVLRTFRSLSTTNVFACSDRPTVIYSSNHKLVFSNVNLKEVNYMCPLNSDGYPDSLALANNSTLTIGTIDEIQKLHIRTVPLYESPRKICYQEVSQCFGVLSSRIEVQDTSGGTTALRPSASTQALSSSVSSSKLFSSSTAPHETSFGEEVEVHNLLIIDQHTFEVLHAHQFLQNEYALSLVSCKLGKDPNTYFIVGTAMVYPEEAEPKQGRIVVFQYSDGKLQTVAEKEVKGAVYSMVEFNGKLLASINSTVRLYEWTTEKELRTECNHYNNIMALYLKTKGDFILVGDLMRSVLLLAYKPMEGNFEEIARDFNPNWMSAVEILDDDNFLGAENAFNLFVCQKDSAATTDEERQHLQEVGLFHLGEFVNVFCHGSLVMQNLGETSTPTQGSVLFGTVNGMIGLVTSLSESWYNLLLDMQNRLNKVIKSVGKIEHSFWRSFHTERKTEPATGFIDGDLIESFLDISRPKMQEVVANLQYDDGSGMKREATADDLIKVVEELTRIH
// Dmax lookup, one value per entry
Could you give me the number in %? Just the number is fine.

Examples with their reported Dmax follow.
{"compound": "CN1Cc2cccc(-c3ccc(-c4cccc(C5CCC(=O)NC5=O)c4Cl)cc3)c2C1=O (centres unmarked)", "endpoint-label": "Dmax", "value-observed": 89.3}
{"compound": "O=C1CCC(c2cccc(-c3ccc(CN4C(=O)CCC45CCC5)cc3)c2Cl)C(=O)N1 (centres unmarked)", "endpoint-label": "Dmax", "value-observed": 95.8}
{"compound": "CC1(C)COC(=O)N1c1ccc(-c2cccc(C3CCC(=O)NC3=O)c2Cl)cc1 (centres unmarked)", "endpoint-label": "Dmax", "value-observed": 97.2}
{"compound": "CCNc1ccc(-c2cccc(C3CCC(=O)NC3=O)c2Cl)cc1 (centres unmarked)", "endpoint-label": "Dmax", "value-observed": 80.9}
{"compound": "CN1CCN(c2ccc(-c3cccc(C4CCC(=O)NC4=O)c3Cl)cc2)C(=O)C1 (centres unmarked)", "endpoint-label": "Dmax", "value-observed": 91.6}

Q: Entry under review: O=C1CCC(c2cccc(-c3ccc(OC4CCOC4)cc3)c2Cl)C(=O)N1 (centres unmarked) . Reported Dmax?
A: 66.4

Q: Now the compound Cn1cccc(-c2ccc(-c3cccc(C4CCC(=O)NC4=O)c3Cl)cc2)c1=O (centres unmarked)
A: 93.7

Q: What about O=C1CCC(c2cccc(-c3ccc(N4CCCCC4C(F)F)cc3)c2Cl)C(=O)N1 (centres unmarked) ?
A: 79.4

Q: Please answer likewise for CN1CCC[C@@H](c2ccc(-c3cccc(C4CCC(=O)NC4=O)c3Cl)cc2)C1=O (some centres unmarked)
A: 92.1

Q: Same question, O=C1CCC(c2cccc(-c3ccc(N4CCCCC4=O)nc3)c2Cl)C(=O)N1 (centres unmarked) this time
A: 75.9

Q: // repeat for Cn1ccc(Cc2ccc(-c3cccc(C4CCC(=O)NC4=O)c3Cl)cc2)n1 (centres unmarked) and report
A: 98

Q: # iterate: C#Cc1ccc(C2CCC(=O)NC2=O)c(Cl)c1-c1ccc(OCc2ccn(C)n2)cc1 (centres unmarked)
A: 24.7

Q: Can you check O=C1CCC(c2cccc(-c3ccc4c(c3)CC(=O)N4Cc3cccnn3)c2Cl)C(=O)N1 (centres unmarked) next?
A: 83.9

Q: Likewise for O=C1CCC(c2cccc(-c3ccc(N4Cc5nccn5CC4=O)cc3)c2Cl)C(=O)N1 (centres unmarked) ?
A: 90.8

Q: Now this one: O=C1CCC(c2cccc(-c3ccc(CN4C(=O)CCCC45CC5)nc3)c2Cl)C(=O)N1 (centres unmarked)
A: 65.5

Q: Now consider O=C1CCC(c2cccc(-c3ccc(Cn4ccccc4=O)cc3)c2)C(=O)N1 (centres unmarked) and answer again.
A: 63.4

Q: Now give it for O=C1CCC(c2cccc(-c3ccc(N4Cc5ncccc5C4=O)cc3)c2Cl)C(=O)N1 (centres unmarked) too.
A: 35.2

* * *

target: VAV1 (Homo sapiens, UniProt P15498+Q96SW2); construct: A heterozygous VAV1 C-terminal HiBiT knock-in pool was generated at Monte Rosa Therapeutics from a clonal Jurkat cell; endogenous in cells; host or cells: Jurkat clone stably expressing LgBiT, homozygous GSPT1-G575N; heterozygous VAV1-HiBiT knock-in pool; assay: VAV1 degradation activity, VAV1-HiBiT knock-in Jurkat luminescence assay (Example A, Table 1); assay type: cell-based; conditions: VAV1-HiBiT knock-in Jurkat cells, luminescence read at 6 and 24 hours; read-out: VAV1 DC50
DC50 strictly less than 0.04 µM = satisfied. Otherwise not satisfied.

{"molecule": "O=C1CCC(c2cccc(-c3ccc(N4CCC5CC5C4=O)cc3)c2Cl)C(=O)N1 (stereo not drawn)", "answer-label": "satisfied"}
{"molecule": "O=C1CCC(c2cccc(-c3ccc(C(=O)N4CCC(F)(F)C4)cc3)c2Cl)C(=O)N1 (stereo not drawn)", "answer-label": "not satisfied"}
{"molecule": "CN1CC(=O)N(Cc2ccc(-c3cccc(C4CCC(=O)NC4=O)c3Cl)cc2)CC1(C)C (stereo not drawn)", "answer-label": "satisfied"}
{"molecule": "CC1CCN(c2ccc(-c3cccc(C4CCC(=O)NC4=O)c3Cl)cc2)C(=O)C1 (stereo not drawn)", "answer-label": "satisfied"}
{"molecule": "CN1CC(=O)N(c2ccc(-c3cccc(C4CCC(=O)NC4=O)c3Cl)cn2)CC12CC2 (stereo not drawn)", "answer-label": "not satisfied"}
{"molecule": "O=C1CCC(c2cccc(-c3ccc(OCc4ccncc4)cc3)c2Cl)C(=O)N1 (stereo not drawn)", "answer-label": "satisfied"}

Q: Report whether reported DC50 is lower than 0.04 µM (strictly) for O=C1CCC(c2cccc(-c3ccc(N4C(=O)CCn5nccc54)cc3)c2Cl)C(=O)N1 (stereo not drawn)
A: not satisfied

Q: Would you kindly repeat that for C[C@@H]1COCC(=O)N1c1ccc(-c2cccc(C3CCC(=O)NC3=O)c2Cl)cc1 (stereo partly drawn) ?
A: satisfied

Q: Next molecule up: O=C1CCC(c2cccc(-c3ccc(CN4CC5CC5C4=O)cc3)c2Cl)C(=O)N1 (stereo not drawn)
A: satisfied

Q: # iterate: O=C1CCC(c2cccc(-c3ccc(Oc4ccccn4)cc3)c2Cl)C(=O)N1 (stereo not drawn)
A: satisfied

Q: Same question for Nc1nccn1Cc1ccc(-c2cccc(C3CCC(=O)NC3=O)c2Cl)cc1 (stereo not drawn) please.
A: not satisfied

Q: Same read-out for O=C1CCC(c2cccc(-c3ccc(CC4COC4)cc3)c2Cl)C(=O)N1 (stereo not drawn) ?
A: satisfied

Q: Input Cn1ccc(COc2ncc(-c3cccc(C4CCC(=O)NC4=O)c3Cl)cn2)n1 (stereo not drawn)
A: not satisfied

Q: Cool, now O=C1CCC(c2cccc(-c3ccc(N4CCC(Cn5ccccc5=O)CC4)cc3)c2Cl)C(=O)N1 (stereo not drawn)
A: not satisfied

Q: Also check O=C1CCC(c2c(F)ccc(-c3ccc(Cn4ccccc4=O)cc3)c2Cl)C(=O)N1 (stereo not drawn)
A: not satisfied

Q: Another: COCCCOc1ccc(-c2cccc(C3CCC(=O)NC3=O)c2Cl)cc1 (stereo not drawn)
A: not satisfied

Q: Likewise for Cn1ccc(CCc2ccc(-c3cccc(C4CCC(=O)NC4=O)c3Cl)cn2)n1 (stereo not drawn) ?
A: not satisfied

* * *

Reported Dmax values follow for various molecules
molecular target: VAV1 (Homo sapiens, UniProt P15498+Q96SW2); construct: A heterozygous VAV1 C-terminal HiBiT knock-in pool was generated at Monte Rosa Therapeutics from a clonal Jurkat cell; endogenous in cells; host or cells: Jurkat clone stably expressing LgBiT, homozygous GSPT1-G575N; heterozygous VAV1-HiBiT knock-in pool; test: VAV1 degradation activity, VAV1-HiBiT knock-in Jurkat luminescence assay (Example A, Table 1); format: cell-based; conditions: Jurkat, VAV1-HiBiT knock-in Jurkat cells, luminescence read at 6 and 24 hours; read-out: VAV1 Dmax %
Value expressed in %; do not type the unit.

In the examples that follow, each entry is paired with its recorded Dmax.
{"molecule": "CC(=O)Nc1ccc(-c2cccc(C3CCC(=O)NC3=O)c2Cl)cc1 (centres unmarked) [Compound 128]", "endpoint-label": "Dmax", "readout-units": "%", "value-observed": 81.1}
{"molecule": "O=C1CCC(c2cccc(-c3ccc(NC(=O)N4CCCC4)cc3)c2Cl)C(=O)N1 (centres unmarked) [Compound 248]", "endpoint-label": "Dmax", "readout-units": "%", "value-observed": 84.4}
{"molecule": "O=C1CCC(c2cccc(-c3ccc(N4C(=O)OCCC45CCC5)nc3)c2Cl)C(=O)N1 (centres unmarked) [Compound 359]", "endpoint-label": "Dmax", "readout-units": "%", "value-observed": 95}

Q: Write down the reported Dmax of COCc1ccn(C)c(=O)c1-c1ccc(-c2cccc(C3CCC(=O)NC3=O)c2Cl)cc1 (centres unmarked) [Compound 411] , test system: VAV1 (Homo sapiens, UniProt P15498+Q96SW2).
A: 98.2

Q: Then O=C1CCC(c2cccc(-c3ccc(Nc4ccccn4)cc3)c2Cl)C(=O)N1 (centres unmarked) [Compound 215] ?
A: 96.8

Q: Now consider CC1CCCN(Cc2ccc(-c3cccc(C4CCC(=O)NC4=O)c3Cl)cc2)C1=O (centres unmarked) [Compound 287] .
A: 95.5

Q: Lookup O=C1CCC(c2cccc(-c3ccc(N4CCCC(F)C4=O)cc3)c2Cl)C(=O)N1 (centres unmarked) [Compound 323]
A: 95

Q: Then this molecule: CN1CC(=O)N(Cc2ccc(-c3cccc(C4CCC(=O)NC4=O)c3Cl)cc2)c2cnccc21 (centres unmarked) [Compound 256]
A: 75.8
